Data origin, for the record: a melting point compilation (Tetko et al.; mined from patent text by program, amines drawn as free bases though some values may be those of a salt)

melting point reference
result.type: melting point

In [3]: df
Out[3]:
                                    compound     meas_value
 0                 COC(=O)CCSc1nc(C(N)=O)cs1  151 to 152 °C
 1                 CS(=O)(=O)Oc1ccccc1C(=O)O  125 to 126 °C
 2  Cc1cc(C)c(C2CN(c3cc4[nH]cc(C(=O)O)c(=O)c4cc3F)CCN2)o1 (stereo unspecified)  230 to 232 °C
 3  CC(C)(C)c1cc(SCCC(=O)N2CCOCC2)cc(C(C)(C)C)c1O  136 to 138 °C
 4  FC(F)(F)c1cc(Cl)c(-n2ncc(-c3nc(Br)c(Br)[nH]3)n2)c(Cl)c1  234 to 235 °C
 5  CCn1cc(C2(c3cccc(Br)c3)N=C(N)N(C)C2=O)cc1C=O (stereo unspecified)  194 to 195 °C
 6   CCc1cccc(C)c1CNc1nc(OCCOC)cc2c1nc(C)n2C         105 °C
 7  Cc1ccccc1CC(=O)c1cc(O)c(O)c([N+](=O)[O-])c1  128 to 129 °C
 8                        O=C1CCCN1Nc1ccncc1  177 to 180 °C
 9  O=C(Nc1nc2ccccc2nc1Oc1ccccc1)N1CCN(C(c2ccccc2)c2ccccc2)CC1  208 to 210 °C
10  Cc1cnc(CO)cc1C(c1cc(F)ccc1F)S(=O)(=O)c1ccc(Cl)cc1 (stereo unspecified)  196 to 198 °C
11            Cc1ccc(NS(=O)(=O)c2ccccc2)cc1N  142 to 144 °C
12  CCC1CCn2c(nc(-c3ccncn3)cc2=O)N1 (stereo unspecified)  226 to 228 °C
13  O=C1CC(C(F)(F)F)CC(=O)N1c1cc(C2OCCCO2)c(Cl)cc1F  158 to 161 °C
14  COc1cc(C)cc2nc(S(=O)(=O)Nc3c(Cl)cccc3Cl)nn12  269 to 270 °C
15  O=C(NCc1ccccc1OC(F)(F)F)[C@@H]1CCCN(c2cccc3c2C(=O)N(Cc2ccncc2)C3=O)C1  197 to 198 °C
16  CCN(CC)C(=O)SC1(C(=O)N(CC)CC)C=CC=NC1F (stereo unspecified)    87 to 88 °C
17  CN1CCN(c2ccccc2C=C2C(=O)Nc3ccc(Cl)cc32)CC1  235 to 237 °C
18  COc1ccc(-c2nc(SCC(C)=O)[nH]c2-c2ccc(OC)cc2)cc1  115 to 118 °C
19          COc1cc(C(F)(F)F)cc(OC)c1C(=O)CCl  120 to 122 °C
20           Nc1ccc(C2=NNC(c3ccccn3)=NN2)nc1  158 to 160 °C

* * *

melting point reference
result.type: melting point

>>> df
                                    compound     meas_value
 0     Cc1c(Br)c(=O)c(C(=O)O)c(-c2ccccc2)n1C  252 to 253 °C
 1  Cc1ccccc1CN1CCc2ccc(C(=O)CCC(=O)N3CCC(c4ccc(Cl)cc4)CC3)cc2CC1  108 to 109 °C
 2  O=C(Oc1ccccc1)N1Cc2ccccc2C(c2ccccc2)c2ccccc21 (centres undefined)  155 to 165 °C
 3      CCCCNC(=O)Oc1cccc(NC(=O)C=C(C)OCC)c1         164 °C
 4      Clc1ccc2snc(-c3ccc(C4=NCCN4)cc3)c2c1         195 °C
 5  O=C(O)C(Oc1ccc(Cl)cc1)(C(F)(F)F)C(F)(F)F    81 to 83 °C
 6  CCCCOC(=O)c1cc(=O)c2c3c(cc(Cl)c2o1)-c1ccc(S(=O)(=O)O)cc1CO3    95 to 97 °C
 7  CC(C)(O)c1ccc(-c2cnc3c(n2)N(CC2CCOCC2)CC(=O)N3)cn1  268 to 269 °C
 8      CN1CC(=O)Nc2ccc([N+](=O)[O-])cc2C1=O  250 to 252 °C
 9  Cc1ccccc1C(CCC(=O)O)Oc1cc(OCc2ccsc2)cc(F)c1C#N (racemic)  150 to 151 °C
10  CCOC(=O)c1cn2c3c(c(C#N)ccc3c1=O)CCC2C (centres undefined)  249 to 251 °C
11            Cc1c(Cc2cccnc2)ccc2ccc(Br)cc12  101 to 104 °C
12  CC(=O)NC(Cc1cccc(C(=O)OC(C)(C)C)c1)C(=O)OCc1ccccc1 (centres undefined)  164 to 166 °C
13   O=S(=O)(/C=C/c1ccc(Cl)cc1)Nc1cccc(Cl)c1  118 to 120 °C
14  COc1cccc(-c2ccc3cc(OC)ccc3c2C(=O)c2ccc(O)cc2)c1  158 to 159 °C
15  Cn1c(C(F)(F)F)ccc(-c2cc([N+](=O)[O-])c(Cl)cc2F)c1=O  139 to 140 °C
16  CCC(Oc1cccc(C)c1C)C(=O)OC1CC(O)C=C2C=CC(C)C(CCC3CC(O)CC(=O)O3)C21 (mixture of isomers)  148 to 150 °C
17  C=C(C)C(=O)OCCOC(=O)c1ccc2c(c1)C(=O)N(OS(=O)(=O)c1ccc(C)cc1)C2=O         113 °C
18  CC(=O)C1CCC2C3CCC4CC(O)CCC4(C)C3=CCC12C (centres undefined)  160 to 161 °C
